System: 317291-083-R-J1-PDC complex spheroids, viability
ASSAY OVERVIEW: Anticancer human tumor 317291-083-R-J1-PDC patient-derived soft tissue sarcoma cell line growth inhibition [GQUAD]
RECORDED CONDITIONS: second compound 10 µM; first compound 1 µM; active compounds read low
// assign Yes if viability, T/C falls strictly below 8%, else No (ties count as No)

These solved cases illustrate the format of a correct answer.
INSERT INTO assay_data (molecule, assigned_label) VALUES
  ('O=C(NO)c1cnc(N2CCN(S(=O)(=O)c3ccc4ccccc4c3)CC2)nc1 + Cc1[nH]c2ccc(F)cc2c1-c1nc2c3cccnc3c3ncccc3c2[nH]1', 'Yes'),
  ('C#Cc1c(F)ccc2cc(O)cc(-c3ncc4c(N5CC6CCC(C5)N6)nc(OCC56CCCN5CC(F)C6)nc4c3F)c12 (stereo unspecified) + Cc1[nH]c2ccc(F)cc2c1-c1nc2c3cccnc3c3ncccc3c2[nH]1', 'No'),
  ('CC(C)n1c(=O)n(C)c2cnc3cc(F)c(-c4ccc(OCCCN5CCCCC5)nc4)cc3c21 + Cc1[nH]c2ccc(F)cc2c1-c1nc2c3cccnc3c3ncccc3c2[nH]1', 'No'),
  ('CCCS(=O)(=O)Nc1ccc(F)c(C(=O)c2c[nH]c3ncc(-c4ccc(Cl)cc4)cc23)c1F + CN(C)c1ccc(Nc2c3ccc(NC(=O)CCN4CCCC4)cc3nc3cc(NC(=O)CCN4CCCC4)ccc23)cc1', 'Yes');

input: Dear reviewer, please state whether C=CCn1c(=O)c2cnc(Nc3ccc(N4CCN(C)CC4)cc3)nc2n1-c1cccc(C(C)(C)O)n1 + Cc1cnc(CNC(=O)c2c(=O)c3ccc(N4CCCN(C)CC4)nc3n3c2sc2ccccc23)cn1 has viability, T/C strictly beneath 8%.
output: Yes

input: Dear reviewer, please state whether CC1COCCN1c1cc(-c2ccnn2C)c2ccnc(-c3ccn[nH]3)c2n1 (stereo unspecified) + CN(C)c1ccc(Nc2c3ccc(NC(=O)CCN4CCCC4)cc3nc3cc(NC(=O)CCN4CCCC4)ccc23)cc1 has viability, T/C strictly beneath 8%.
output: Yes

----------
System: 317291-083-R-J1-PDC complex spheroids, viability
ASSAY OVERVIEW: Anticancer human tumor 317291-083-R-J1-PDC cell line growth inhibition [GQUAD];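 also: spheroids exposed to compounds for one week before readout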
RECORDED CONDITIONS: second compound 0.316 µM; first compound 3.16 µM; active compounds read low
// assign criterion met if viability, T/C falls strictly below 30%, else criterion not met (ties count as criterion not met)

These solved cases illustrate the format of a correct answer.
INSERT INTO assay_data (compound, assigned_label) VALUES
  ('CC1COCCN1c1cc(-c2ccnn2C)c2ccnc(-c3ccn[nH]3)c2n1 (stereo unspecified) + Cc1cnc(CNC(=O)c2c(=O)c3ccc(N4CCCN(C)CC4)nc3n3c2sc2ccccc23)cn1', 'criterion met'),
  ('Nc1ccn(C2OC(CO)C(O)C2(F)F)c(=O)n1 (stereo unspecified) + Cc1cnc(CNC(=O)c2c(=O)c3ccc(N4CCCN(C)CC4)nc3n3c2sc2ccccc23)cn1', 'criterion met'),
  ('O=c1[nH]cc(F)c(=O)[nH]1 + Cc1cnc(CNC(=O)c2c(=O)c3ccc(N4CCCN(C)CC4)nc3n3c2sc2ccccc23)cn1', 'criterion not met'),
  ('COc1ncnc(C2CC2)c1-c1ncc2cnn(Cc3ccc(-c4nc(C(F)(F)F)cn4C(C)C)cc3)c2n1 + CN(C)c1ccc(Nc2c3ccc(NC(=O)CCN4CCCC4)cc3nc3cc(NC(=O)CCN4CCCC4)ccc23)cc1', 'criterion not met'),
  ('COc1ncnc(C2CC2)c1-c1ncc2cnn(Cc3ccc(-c4nc(C(F)(F)F)cn4C(C)C)cc3)c2n1 + Cc1[nH]c2ccc(F)cc2c1-c1nc2c3cccnc3c3ncccc3c2[nH]1', 'criterion not met');

Could you now look at the following compound, please?
input: Dear reviewer, please state whether COc1ccc([C@@H](O)c2cc(-c3ncnc4cc(N5CCOCC5)ccc34)c(F)cc2Cl)nn1 + Cc1cnc(CNC(=O)c2c(=O)c3ccc(N4CCCN(C)CC4)nc3n3c2sc2ccccc23)cn1 has viability, T/C strictly beneath 30%.
output: criterion met
